All figures here come from patent US20230416363A1.

EC50 for assorted binders
STUDY TARGET: T1, human PD-1 expressed on cells (human, UniProt Q15116 25-288)
T1 construct: whole, on cells
T1 sequence (Q15116 25-288): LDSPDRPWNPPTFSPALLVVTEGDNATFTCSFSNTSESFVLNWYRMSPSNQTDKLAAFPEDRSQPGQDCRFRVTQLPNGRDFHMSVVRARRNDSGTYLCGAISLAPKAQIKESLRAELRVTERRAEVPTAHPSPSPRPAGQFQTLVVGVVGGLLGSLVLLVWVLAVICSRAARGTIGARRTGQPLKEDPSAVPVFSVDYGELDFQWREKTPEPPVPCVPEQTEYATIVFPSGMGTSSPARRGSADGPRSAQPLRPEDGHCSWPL
PROCEDURE DETAILS: flow cytometry, hPD1-Jurkat cells
Answer with a number only, understood to be in nM.

The following binders have reported results that may help.
>  <BINDER>
38B2 (antibody, V domains shown, 24H9 derivative, IgG; also called 780_54; hPD1 Ab (38B2)) VH: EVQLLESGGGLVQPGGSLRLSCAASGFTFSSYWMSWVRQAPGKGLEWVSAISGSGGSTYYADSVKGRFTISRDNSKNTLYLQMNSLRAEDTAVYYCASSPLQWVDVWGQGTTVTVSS VL: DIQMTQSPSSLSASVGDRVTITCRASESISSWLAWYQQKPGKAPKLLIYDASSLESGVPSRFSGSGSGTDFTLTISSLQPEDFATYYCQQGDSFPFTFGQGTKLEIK

>  <VALUE KIND>
EC50

>  <QUANTITATIVE RESULT>
0.16

$$$$
>  <BINDER>
24H9 (antibody, human IgG1, V domains shown) VH: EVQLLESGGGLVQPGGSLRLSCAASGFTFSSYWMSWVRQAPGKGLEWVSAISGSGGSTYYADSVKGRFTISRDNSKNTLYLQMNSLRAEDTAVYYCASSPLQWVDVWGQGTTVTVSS VL: DIQMTQSPSSLSASVGDRVTITCRASQGISSWLAWYQQKPGKAPKLLIYSASSLQSGVPSRFSGSGSGTDFTLTISSLQPEDFATYYCQQANSFPFTFGPGTKVDIK

>  <VALUE KIND>
EC50

>  <QUANTITATIVE RESULT>
0.77

$$$$
>  <BINDER>
31B1 (antibody, V domains shown, also called 780_38; 33B1 and 31B2 (apparent misprints)) VH: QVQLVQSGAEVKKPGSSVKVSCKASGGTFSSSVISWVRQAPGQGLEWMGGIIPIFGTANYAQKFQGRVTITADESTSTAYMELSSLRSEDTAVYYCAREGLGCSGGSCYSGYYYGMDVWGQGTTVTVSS VL: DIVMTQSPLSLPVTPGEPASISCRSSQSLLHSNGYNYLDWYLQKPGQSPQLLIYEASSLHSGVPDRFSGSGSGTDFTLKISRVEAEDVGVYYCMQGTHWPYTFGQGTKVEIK

>  <VALUE KIND>
EC50

>  <QUANTITATIVE RESULT>
0.084

$$$$

Next:
Query: Given the entry 38A6 (antibody, V domains shown, also called 780_46) VH: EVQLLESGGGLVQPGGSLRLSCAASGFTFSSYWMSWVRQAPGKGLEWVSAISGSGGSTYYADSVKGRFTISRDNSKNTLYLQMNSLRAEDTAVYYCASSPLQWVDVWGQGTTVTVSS VL: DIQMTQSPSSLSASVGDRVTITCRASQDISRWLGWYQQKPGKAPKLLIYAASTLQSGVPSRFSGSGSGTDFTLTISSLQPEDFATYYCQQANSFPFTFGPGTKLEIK , report its measured EC50.
Reply: 0.21
